Taken from ChEMBL document CHEMBL3132771.

Target: Bromodomain-containing protein 9 (Homo sapiens)
Assay: Binding affinity to human recombinant biotinylated BRD9 by UV spectrophotometric analysis
Calls of active or inactive are those of the source. The rule behind the calls is not given here.
Observable: Activity

The following molecules have reported results that may help.
I would be grateful if you could share the reported Activity for CCOC(=O)N(c1cc(-c2cc(N)c3nnc(C)n3n2)ccc1C)S(=O)(=O)c1ccc(Cl)cc1 .
Active

Same read-out for Cc1ccc(-c2cc(N)c3nnc(C)n3n2)cc1NS(=O)(=O)c1cccc(Cl)c1 ?
Active

Same read-out for FC(F)(F)c1nnc2ccc(-c3ccccc3)nn12 ?
Active

Same read-out for Cc1nnc2c(N)cc(Cl)nn12 ?
Active

Same read-out for CCOC(=O)N(c1cc(-c2cc(N)c3nnc(C)n3n2)ccc1C)S(=O)(=O)c1ccccc1Cl ?
Active

Same read-out for Cc1ccc(-c2cc(N)c3nnc(C)n3n2)cc1NS(=O)(=O)c1ccccc1Cl ?
Active

---
I would be grateful if you could share the reported Activity for COc1ccc(-c2ccc3nnc(C(F)(F)F)n3n2)cc1 .
Active

Same read-out for Cc1ccc(-c2cc(N)c3nnc(C)n3n2)cc1NS(=O)(=O)c1ccc(Cl)c(Cl)c1 ?
Active
